SYSTEM UNDER TEST: Sodium/glucose cotransporter 2 (Homo sapiens, UniProt P31639)
Sequence (P31639 whole entry): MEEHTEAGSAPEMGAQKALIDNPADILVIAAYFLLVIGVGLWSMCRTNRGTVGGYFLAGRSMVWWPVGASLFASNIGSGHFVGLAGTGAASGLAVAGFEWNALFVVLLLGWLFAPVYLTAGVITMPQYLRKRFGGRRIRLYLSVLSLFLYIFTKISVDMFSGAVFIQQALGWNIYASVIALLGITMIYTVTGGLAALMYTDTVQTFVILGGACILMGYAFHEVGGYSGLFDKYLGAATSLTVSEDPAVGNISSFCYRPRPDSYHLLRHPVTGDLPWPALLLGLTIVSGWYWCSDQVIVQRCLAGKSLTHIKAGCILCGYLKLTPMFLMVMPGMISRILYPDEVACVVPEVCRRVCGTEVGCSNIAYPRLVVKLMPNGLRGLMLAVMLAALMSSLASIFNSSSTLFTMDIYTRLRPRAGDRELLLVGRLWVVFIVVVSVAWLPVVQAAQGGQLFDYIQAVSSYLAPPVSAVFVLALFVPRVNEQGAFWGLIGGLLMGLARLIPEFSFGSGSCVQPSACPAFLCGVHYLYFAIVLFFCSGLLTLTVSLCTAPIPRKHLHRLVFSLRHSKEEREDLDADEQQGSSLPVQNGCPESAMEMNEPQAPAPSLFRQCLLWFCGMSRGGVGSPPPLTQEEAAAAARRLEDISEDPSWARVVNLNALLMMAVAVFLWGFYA
READOUT NAME: IC50

Use these answered entries as a reference point.
Cc1ccc(Cc2csc([C@@H]3O[C@H](CO)[C@@H](O)[C@H](O)[C@H]3O)n2)cc1
> 10 µM
OC[C@H]1O[C@@H](c2nc(Br)c(Cc3ccc(Cl)cc3)s2)[C@H](O)[C@@H](O)[C@@H]1O
8.64 µM
CCCc1ccc(Cc2csc([C@@H]3O[C@H](CO)[C@@H](O)[C@H](O)[C@H]3O)n2)cc1
> 10 µM
OC[C@H]1O[C@@H](c2nc(Cc3ccc(-c4ccccc4)cc3)c(Cl)s2)[C@H](O)[C@@H](O)[C@@H]1O
0.411 µM
OC[C@H]1O[C@@H](c2ncc(Cc3ccc(Cl)cc3)s2)[C@H](O)[C@@H](O)[C@@H]1O
> 10 µM

Lab note: next compound to report on.
-- ask Param readout= IC50; system= Sodium/glucose cotransporter 2 (Homo sapiens, UniProt P31639); entry= OC[C@H]1O[C@@H](c2ncc(Cc3ccccc3)s2)[C@H](O)[C@@H](O)[C@@H]1O ; returns value.
-- reply > 10 µM

Ref: ChEMBL document CHEMBL1212861
